Hey, just so you know, these numbers are from PubChem BioAssay (NCI).

Kindly supply the reported TGI values for the records listed here.
system: HOP-92 NSCLC; assay: NCI tumour cell line growth inhibition, 48 h
Give the value, in units of µM, as a plain number.

For the record `Cc1c2ccccc2c(CSC(=N)N)c2ccccc12` , what value of TGI is listed for HOP-92 NSCLC?
1.43

# get_value(readout= TGI, system= HOP-92 NSCLC) for `C[C@]12CCC(=O)C=C1CC[C@@H]1[C@@H]2CC[C@]2(C)C(=O)/C(=C/c3ccncc3)C[C@@H]12`
42.8

Request: TGI, test system HOP-92 NSCLC, entry CCC1CCC2C3CC=C4CC(OC(C)=O)C(N)CC4(C)C3CCC12C (stereo not drawn)
10.8

Hi! What's the reported TGI for `Cc1ccc(N/N=C/C2=CC(C)(C)C(C#N)(C#N)C(O)=C2C#N)cc1` on HOP-92 NSCLC?
42.2

* * *

test system: RPMI-8226 leukemia; test: NCI tumour cell line growth inhibition, 48 h
REPORTED ENDPOINT: TGI

// lookup TGI for C[C@]12CC[C@H](OC(=O)Cc3ccc(N(CCCl)CCCl)cc3)CC1CC[C@@H]1C2CC[C@]2(C)NC(=O)CCC12 (stereo partly drawn)
23 µM

Quick one: TGI for C/C(=N\N)C(CN1CCCCC1)C(c1ccccc1)c1c(O)c2ccccc2oc1=O (stereo not drawn) ?
> 100 µM

Bench note: what TGI did `CCN1C(=O)/C(=C\c2coc3ccccc3c2=O)SC1=S` show?
> 100 µM

Item under review: N#Cc1c(N)n(C2OC(CO)C(O)C2O)c2ncnc(N)c12 (stereo not drawn) . Reported TGI?
3.59 µM

May I ask what TGI has been recorded for `COc1ccc(-c2c(-c3cc4c(c(OC)c3OC)OCO4)noc2N)cc1` ?
50.9 µM

Fill in: TGI of C=CC(C)CCC(C/C=C(\C)CCCC(C)C)C(=C)CCCC(C)C (stereo not drawn) is ___
> 100 µM

So what does the record say about TGI for `S=C(Nc1ccc(Cl)cc1)c1ccc(CN2CCCCC2)s1` ?
20.2 µM

Any idea what its TGI is? The compound is `O=c1ncc(I)c[nH]1`
> 100 µM

So what's the measured TGI for this one? O=S(Nc1ccccc1)c1ccccc1Oc1ccccc1 (stereo not drawn)
> 100 µM

GET /values?readout=TGI&item= `CCOC(=O)CC[C@H](NC(=O)c1ccc(CNc2nc3cc(C(F)(F)F)ccc3nc2C(=O)OCC)cc1)C(=O)OCC`
> 100 µM

Data request, read-out TGI, for `O=C1C2=C(C(=O)c3c(O)ccc(O)c31)N(c1cccnc1)Cc1ccccc1O2`
2.03 µM

Which TGI value belongs to `O=C1C[C@@H]2[C@@H](C=CC23CC3)N1O` ?
> 100 µM

Fill in the blank: the reported TGI of `CN1C(=O)C(C)(C)NS1(=O)=O` is ____.
> 100 µM

Using the record for `CN(C)c1ccc(/C=N/NC(=O)CSc2nc3sc4c(c3c(=O)n2-c2ccccc2)CCCCC4)cc1` , report its TGI.
> 100 µM

Please report the recorded TGI for `NCc1ccc(O)c(O)c1O` .
64.8 µM

Can you share its TGI? I mean this compound: `COc1cc(C(=O)O)cc2c1[nH]c1ccccc12`
> 25 µM

May I ask what TGI has been recorded for CCCCCCCCCCCCCCC(C(=O)[O-])[n+]1ccccc1 (stereo not drawn) ?
> 100 µM

Endpoint output: TGI of `O=C(O)COc1cc(-c2ccccc2F)nc2cc3c(cc12)OCO3` . Value?
> 100 µM

What value of TGI has been reported for the following compound? `O=c1[nH]c(=S)n(-c2cccc3ccccc23)c(O)c1/C=C1\C=Nc2ccccc21`
4.96 µM

For `CCOP(=O)(OCC)c1cc2cc(O)ccc2oc1=O` , what is its reported TGI?
> 100 µM

Entry CC(SC(=S)N(C)C)C(=O)Nc1nnc(-c2ccc(Cl)cc2)o1 (stereo not drawn) : reported TGI = ?
66.6 µM

Give the measured TGI of CC12CCC(=O)N1c1cc([N+](=O)[O-])ccc1N2 (stereo not drawn) .
> 100 µM

What measured TGI goes with `ClCCN(CC#CCCCC#CCN(CCCl)CCCl)CCCl` ?
13.4 µM
